# assay_details: in vivo
# run_conditions: mouse, 5 mg/kg

{"query_smiles": "C[C@H]1COc2c(N3CC[C@@H](C4(N)CC4)C3)c(F)cc3cc(C(=O)O)c(=O)n1c23", "Vd at 24 h / L/kg": 1.88}

---

# assay_details: in vivo
# run_conditions: rat, po, 5 mg/kg

{"compound": "C[C@H](N)[C@@H]1CCN(c2c(F)cc3cc(C(=O)O)c(=O)n4c3c2OC[C@@H]4C)C1", "measure_unit": "µM·h", "AUC(0-inf) at 24 h": 1.6}
{"compound": "Cc1c(N2CCC(C3(N)CC3)C2)c(F)cc2c(CC(=O)N(C)C)cc(=O)n(C3CC3)c12 (stereo not given)", "measure_unit": "µM·h", "AUC(0-inf) at 24 h": 0.26}
{"compound": "C[C@H]1COc2c(N3CC[C@@H](C4(N)CC4)C3)c(F)cc3cc(C(=O)O)c(=O)n1c23", "measure_unit": "µM·h", "AUC(0-inf) at 24 h": 8.68}
{"compound": "Cc1c(N2CCC(C3(N)CC3)C2)c(F)cc2cc(C(=O)O)c(=O)n(C3CC3)c12 (stereo not given)", "measure_unit": "µM·h", "AUC(0-inf) at 24 h": 7.62}
{"compound": "Cc1c(N2CCC(C3(N)CC3)C2)c(F)cc2c(Cc3n[nH]c(=O)o3)cc(=O)n(C3CC3)c12 (stereo not given)", "measure_unit": "µM·h", "AUC(0-inf) at 24 h": 0.12}

---

# System: Staphylococcus aureus
# assay_details: microbe, parasite or virus in culture
# run_conditions: ATCC 49951
Catalogue of MIC values

{"molecule": "Cc1c(N2CCC(C3(N)CC3)C2)c(F)cc2c(CC(=O)N(C)C)cc(=O)n(C3CC3)c12 (stereo unspecified)", "MIC": "2 µg/mL"}
{"molecule": "C[C@H]1COc2c(N3CC4[C@H](C3)[C@H](N)CCC4(F)F)c(F)cc3cc(C(=O)O)c(=O)n1c23 (single isomer, unassigned)", "MIC": "≤ 0.03 µg/mL"}
{"molecule": "C[C@H]1COc2c(N3CC[C@H](O)C3)c(F)cc3cc(C(=O)O)c(=O)n1c23", "MIC": "0.5 µg/mL"}
{"molecule": "Cc1c(N2CCC(C3(N)CC3)C2)c(F)cc2c(Cc3cc(O)no3)cc(=O)n(C3CC3)c12 (stereo unspecified)", "MIC": "8 µg/mL"}
{"molecule": "C[C@H]1COc2c(N3C[C@@H]4CCC[C@H](N)[C@H]4C3)c(F)cc3cc(C(=O)O)c(=O)n1c23", "MIC": "0.06 µg/mL"}
{"molecule": "Cc1c(N2CCC(C3(N)CC3)C2)c(F)cc2c(-c3cc(O)no3)cc(=O)n(C3CC3)c12 (stereo unspecified)", "MIC": "1 µg/mL"}
{"molecule": "C[C@H]1COc2c(N3CC[C@@H](C4(N)CC4)C3)c(F)c(Cl)c3cc(C(=O)O)c(=O)n1c23", "MIC": "≤ 0.03 µg/mL"}
{"molecule": "Cc1c(N2CCC(C3(N)CC3)C2)c(F)cc2c(-c3noc(=S)[nH]3)cc(=O)n(C3CC3)c12 (stereo unspecified)", "MIC": "4 µg/mL"}
{"molecule": "C[C@H]1COc2c(N3CC[C@@H](C4(N)CC4)C3)c(F)c(N)c3cc(C(=O)O)c(=O)n1c23", "MIC": "0.5 µg/mL"}
{"molecule": "C[C@H](N)[C@@H]1CCN(c2c(F)cc3cc(C(=O)O)c(=O)n4c3c2OC[C@@H]4C)C1", "MIC": "0.125 µg/mL"}
{"molecule": "Cc1c(N2CC[C@@H](C3(N)CC3)C2)c(F)cc2cc(-c3nnco3)c(=O)n(C3CC3)c12", "MIC": "0.125 µg/mL"}
{"molecule": "Cc1c(N2CCC(C3(N)CC3)C2)c(F)cc2cc(C(=O)O)c(=O)n(C3CC3)c12 (stereo unspecified)", "MIC": "0.06 µg/mL"}
{"molecule": "CO[C@@H]1CC2CN(c3c(F)cc4cc(C(=O)O)c(=O)n5c4c3OC[C@@H]5C)C[C@@H]2[C@H](N)C1 (single isomer, unassigned)", "MIC": "≤ 0.03 µg/mL"}
{"molecule": "C[C@H]1COc2c(N3CC4C[C@@H](OC(F)F)C[C@@H](N)[C@H]4C3)c(F)cc3cc(C(=O)O)c(=O)n1c23 (single isomer, unassigned)", "MIC": "0.06 µg/mL"}
{"molecule": "Cc1c(N2CCC(C3(N)CC3)C2)c(F)cc2c(Cc3n[nH]c(=O)o3)cc(=O)n(C3CC3)c12 (stereo unspecified)", "MIC": "1 µg/mL"}
{"molecule": "C[C@H]1COc2c(N3CC[C@@H](C4(N)CC4)C3)c(F)c(F)c3cc(C(=O)O)c(=O)n1c23", "MIC": "0.06 µg/mL"}

---

# assay_details: physchem
# run_conditions: octanol/water, pH 7.4
Classify as follows. Reported logD greater than or equal to -0.9: t. Reported logD below: f.

{"molecule": "Cc1c(N2CC3CC3(N)C2)c(F)cc2c(CN)cc(=O)n(C3CC3)c12 (stereo not drawn)", "label_value": "t"}
{"molecule": "C[C@H]1COc2c(N3CC[C@H](O)C3)c(F)cc3cc(C(=O)O)c(=O)n1c23", "label_value": "t"}
{"molecule": "C[C@H]1COc2c(N3CC4CCC[C@@H](N)[C@H]4C3)c(F)cc3cc(C(=O)O)c(=O)n1c23 (single isomer, unassigned)", "label_value": "t"}
{"molecule": "C[C@H]1COc2c(N3CC[C@@H](C4(N)CC4)C3)c(F)c(C#N)c3cc(C(=O)O)c(=O)n1c23", "label_value": "f"}
{"molecule": "C[C@H]1COc2c(N3CC(CN)C4(CCC4)C3)c(F)cc3cc(C(=O)O)c(=O)n1c23 (stereo partly drawn)", "label_value": "t"}
{"molecule": "Cc1c(N2CCC(C3(N)CC3)C2)c(F)cc2c(Cc3noc(=S)[nH]3)cc(=O)n(C3CC3)c12 (stereo not drawn)", "label_value": "t"}
{"molecule": "C[C@H](N)[C@@H]1CCN(c2c(F)cc3cc(C(=O)O)c(=O)n4c3c2OC[C@@H]4C)C1", "label_value": "f"}

---

# assay_details: in vivo
# run_conditions: mouse, po, 5 mg/kg

{"query_smiles": "C[C@H]1COc2c(N3CC[C@@H](C4(N)CC4)C3)c(F)cc3cc(C(=O)O)c(=O)n1c23", "bioavailability at 24 h [%]": 92}

---

# assay_details: in vitro
# run_conditions: CD1, mouse, plasma
Each record is given t if its reported fraction unbound at 4 h, 10 µM is strictly below 0.6. Records at or above 0.6 are given f.

{"compound": "Cc1c(N2CC[C@@H]([C@H](C)N)C2)c(F)cc2cc(C(=O)O)c(=O)n(C3CC3)c12", "label_value": "f"}
{"compound": "C[C@H](N)[C@@H]1CCN(c2c(F)cc3cc(C(=O)O)c(=O)n4c3c2OC[C@@H]4C)C1", "label_value": "f"}
{"compound": "Cc1c(N2CCC(C3(N)CC3)C2)c(F)cc2c(Cc3n[nH]c(=O)o3)cc(=O)n(C3CC3)c12 (stereo not drawn)", "label_value": "t"}
{"compound": "Cc1c(N2CCC(C3(N)CC3)C2)c(F)cc2cc(C(=O)O)c(=O)n(C3CC3)c12 (stereo not drawn)", "label_value": "t"}
{"compound": "C[C@H]1COc2c(N3CC4CC(F)(F)C[C@@H](N)[C@H]4C3)c(F)cc3cc(C(=O)O)c(=O)n1c23 (single isomer, unassigned)", "label_value": "t"}
{"compound": "Cc1c(N2CC[C@@H](C3(N)CC3)C2)c(F)cc2cc(C(=O)O)c(=O)n(C3CC3)c12", "label_value": "t"}
{"compound": "Cc1c(N2CCC(C3(N)CC3)C2)c(F)cc2c(CC(=O)N(C)C)cc(=O)n(C3CC3)c12 (stereo not drawn)", "label_value": "t"}
{"compound": "C[C@H]1COc2c(N3CC[C@@H](C4(N)CC4)C3)c(F)cc3cc(C(=O)O)c(=O)n1c23", "label_value": "f"}

---

# assay_details: in vivo
# run_conditions: rat, po, 5 mg/kg
Exam item: assign y to entries whose Cmax at 24 h is below 80 nM and n to entries at or above 80 nM. Note that a value of exactly 80 nM receives n.

{"molecule": "Cc1c(N2CCC(C3(N)CC3)C2)c(F)cc2cc(C(=O)O)c(=O)n(C3CC3)c12 (stereo not given)", "label_value": "n"}
{"molecule": "C[C@H]1COc2c(N3CC[C@@H](C4(N)CC4)C3)c(F)cc3cc(C(=O)O)c(=O)n1c23", "label_value": "n"}
{"molecule": "Cc1c(N2CCC(C3(N)CC3)C2)c(F)cc2c(Cc3n[nH]c(=O)o3)cc(=O)n(C3CC3)c12 (stereo not given)", "label_value": "y"}
{"molecule": "C[C@H](N)[C@@H]1CCN(c2c(F)cc3cc(C(=O)O)c(=O)n4c3c2OC[C@@H]4C)C1", "label_value": "n"}
